meta.source: PubChem BioAssay (NCI)

Test system: HCT-116 colon
ASSAY NOTES: NCI tumour cell line growth inhibition, 48 h; in the data active = GI50 below about 0.43 µM; inactive = the rest
Respond only with the outcome that fits, drawn from 1 (active), 0 (inactive)

Q: Fill in: this test's call for CC[C@H](C)[C@H](NC(=O)C12C3C4C1C1C2C3C41NC(C)=O)C(=O)N(C)[C@H](C[C@@H](OC(C)=O)c1nc(C(=O)N[C@@H](Cc2ccccc2)C[C@H](C)C(=O)OC)cs1)C(C)C (some centres undefined) is ___
A: 1

Q: Fill in: this test's call for `CCSC1=CC(=O)c2ccccc2C1=O` is ___
A: 0

Q: Fill in: this test's call for `O=C(/C=C/c1cccc(Cl)c1)c1ccc(Cl)cc1Cl` is ___
A: 0

Q: Fill in: this test's call for `CN(C)c1ccc(/C=C/c2ccnc3ccccc23)cc1` is ___
A: 0

Q: Fill in: this test's call for COc1ccc(C(O)c2cc3c(N)c(C(=O)Nc4cccc(Br)c4)sc3nc2C)cc1 (centres undefined) is ___
A: 1

Q: Fill in: this test's call for `COC(=O)CCC1=C(C)c2cc3[n-]c(cc4nc(cc5[n-]c(cc1n2)c(CCC(=O)OC)c5C)C=C4C)cc3C.[Cd+2]` is ___
A: 0

Q: Fill in: this test's call for `COc1ccc(/C=C2\COc3ccc(-c4ccccc4)cc3C2=O)cc1O` is ___
A: 0

Q: Fill in: this test's call for `COc1ccccc1-n1c(SCc2cc(OC)c(OC)c(OC)c2)nc2ccc(Cl)cc2c1=O` is ___
A: 0

Q: Fill in: this test's call for `CCNCCNc1cc(-c2ccc(F)cc2)c(C#N)c2nc3ccccc3n12` is ___
A: 0

----------
For each entry below, report its TGI value.
Tested on: K-562 leukemia
ASSAY NOTES: NCI tumour cell line growth inhibition, 48 h

Q: Give the measured TGI of COc1cc(CC2c3cc(OC)c(OC)cc3CCN2C)c(Oc2cc3c(cc2OC)-c2c(OC)c(OC)c(OC)c4c2C(C3)N(C)CC4)cc1OC (stereo not given) .
A: > 30.5 µM

Q: Give the measured TGI of `O=c1nc2cc(-c3ccccc3)[nH]c2nn1-c1c(Cl)cc(Cl)cc1Cl` .
A: > 100 µM

Q: Give the measured TGI of `N#Cc1c(-c2ccc(Cl)cc2)c(C#N)c(=O)n(NS(=O)(=O)c2ccccc2)c1-c1ccccc1` .
A: > 25 µM

Q: Give the measured TGI of C=C1C(C)C2C(Cc3ccccc3)NC(=O)C23C(OC(C)=O)/C=C/C(C)(O)CC(C)C/C=C/C3C1O (stereo not given) .
A: > 100 µM

Q: Give the measured TGI of `O=C1c2ccccc2C(=O)N1c1ccc(OCCN2CCCCC2)cc1` .
A: > 100 µM

Q: Give the measured TGI of `O=c1[nH]c(-c2ccc(C(F)(F)F)cc2)nc2c1CSCC2` .
A: > 100 µM

Q: Give the measured TGI of `CC1(C)OCN(c2ccc(Cl)cc2)Cn2c1nc1ccccc12` .
A: > 100 µM

Q: Give the measured TGI of CC(=O)OC1CCC2(C)C(=CC(C3C=C4CC(OC(C)=O)CCC4(C)C4=C3C3CC5OC6(CCC(C)CO6)C(C)C5C3(C)CC4)C3=C2CCC2(C)C3CC3OC4(CCC(C)CO4)C(C)C32)C1 (stereo not given) .
A: 15.2 µM

Q: Give the measured TGI of `COc1ccc(/C=C2\N=C3SC=C(N)N3C2=O)cc1` .
A: 17.3 µM

Q: Give the measured TGI of `CCSC1=CC(=O)c2ccccc2C1=O` .
A: 4.52 µM

Q: Give the measured TGI of `CC(=O)c1cn(-c2ccc(Cl)cc2)c(=O)c2c(N)n[nH]c12` .
A: > 100 µM

Q: Give the measured TGI of `C#Cc1ccc(NC(=O)c2ccc(/C=C/C(=O)c3nccn3C)cc2)cc1` .
A: 6.55 µM

Q: Give the measured TGI of `Fc1ccc(-c2ncn(C3CCNCC3)c2-c2ccnc(Oc3cccc(F)c3)n2)cc1` .
A: 16.5 µM

Q: Give the measured TGI of `Nc1cccc(OCc2nc(N)nc(N)c2-c2ccc(Cl)cc2)c1` .
A: > 100 µM

Q: Give the measured TGI of CC(=O)c1cccc(NC2C(N)C(NC(=O)N(C)C)(C(C)O)C(C)(O)C2(O)COC(=O)c2c(C)cccc2O)c1 (stereo not given) .
A: 0.15 µM

Q: Give the measured TGI of `O=C(/C=C/c1cccc(Cl)c1)c1ccc(Cl)cc1Cl` .
A: > 50 µM

Q: Give the measured TGI of `CCNCCNc1cc(-c2ccc(F)cc2)c(C#N)c2nc3ccccc3n12` .
A: 4.64 µM

Q: Give the measured TGI of CC1OC(=O)c2ccccc2NC1=O (stereo not given) .
A: > 100 µM

Q: Give the measured TGI of CCOC(=O)C12CC1(C(=O)OCC)C1CCC2C1 (stereo not given) .
A: > 100 µM

Q: Give the measured TGI of `COC(=O)CCC1=C(C)c2cc3[n-]c(cc4nc(cc5[n-]c(cc1n2)c(CCC(=O)OC)c5C)C=C4C)cc3C.[Cd+2]` .
A: > 30.8 µM

----------
For each entry below, report its TGI value.
Tested on: MALME-3M melanoma
ASSAY NOTES: NCI tumour cell line growth inhibition, 48 h

Q: Give the measured TGI of COc1ccc(NC(=O)C(=O)C2NC(=S)NC2=O)c(OC)c1 (stereo not given) .
A: > 100 µM

Q: Give the measured TGI of `CN(/N=C\c1ccc2ccccc2c1)C1=NCCCCN1` .
A: 30.1 µM

Q: Give the measured TGI of `COc1cccc(C2C(C(=O)Nc3cc(=O)n(C)c(=O)n3C)=C(C)NC(C)=C2C(=O)Nc2cc(=O)n(C)c(=O)n2C)c1O` .
A: > 100 µM

Q: Give the measured TGI of `COc1ccccc1-n1c(SCc2cc(OC)c(OC)c(OC)c2)nc2ccc(Cl)cc2c1=O` .
A: > 100 µM

Q: Give the measured TGI of `Oc1ccccc1-n1c(-c2ccccc2)ccc1-c1ccccc1` .
A: 16.2 µM

----------
Tested on: HOP-62 NSCLC
ASSAY NOTES: NCI tumour cell line growth inhibition, 48 h
For each entry below, report its TGI value.

Q: Give the measured TGI of CN1OC(=O)N(C)C1c1ccccc1 (stereo not drawn) .
A: > 100 µM

Q: Give the measured TGI of COc1cc(C2C(C#N)=C(N)OC3=C2C(=O)c2ccccc2C3=O)cc(OC)c1OC (stereo not drawn) .
A: 17.7 µM

Q: Give the measured TGI of Cc1cccc2c1C(=O)C(C1OC(=O)c3ccccc31)C2 (stereo not drawn) .
A: > 100 µM

Q: Give the measured TGI of `O=C(NC(Nc1ccc(F)c(Cl)c1)(C(F)(F)F)C(F)(F)F)C(C(F)(F)F)C(F)(F)F` .
A: > 100 µM

Q: Give the measured TGI of CN(Cc1cnc2nc(N)nc(N)c2n1)c1ccc(C(=O)NC(CCC(=O)O)C(=O)O)cc1 (stereo not drawn) .
A: > 100 µM

Q: Give the measured TGI of `COc1ccc2c3c(c(OCCCN(C)C)nc2c1)-c1ccc(Cl)cc1C3=O` .
A: 25.3 µM

Q: Give the measured TGI of `COc1cc(C2C(C(=O)Nc3ccccc3)=C(C)NC(C)=C2C(=O)Nc2ccccc2)ccc1O` .
A: > 100 µM

Q: Give the measured TGI of `COc1ccc(C(=O)C=C2NCCN2)cc1` .
A: > 100 µM

Q: Give the measured TGI of CC(C)[Si]1(C(C)C)OCC2OC(n3ccc(=O)[nH]c3=O)C(O)(CO)C2O[Si](C(C)C)(C(C)C)O1 (stereo not drawn) .
A: 33.8 µM

Q: Give the measured TGI of `COc1ccc(O)c2c1C(=O)CCCC2=O` .
A: > 100 µM

Q: Give the measured TGI of `CN(/N=C\c1ccc2ccccc2c1)C1=NCCCCN1` .
A: 90.7 µM

Q: Give the measured TGI of `CC1(C)OCN(c2ccc(Cl)cc2)Cn2c1nc1ccccc12` .
A: > 100 µM

Q: Give the measured TGI of C=C(C)[C@H]1CC/C(C)=C/CCC(C)C(=O)CC/C(CO)=C\[C@@H]1O (stereo partly drawn) .
A: > 100 µM

Q: Give the measured TGI of `CN1CCN(c2ccc3[nH]c(C4=C(O)c5nc(CO)n(C)c5C(=O)C4=O)nc3n2)CC1` .
A: > 100 µM

Q: Give the measured TGI of `COc1ccc(/C=C2\COc3ccc(-c4ccccc4)cc3C2=O)cc1O` .
A: 19.4 µM

Q: Give the measured TGI of `O=Cc1coc2ccccc2c1=O` .
A: 43.8 µM

Q: Give the measured TGI of `CC1(C)CCc2c(c(N=Nc3ccccc3)c3ccccc3c2O)O1` .
A: > 100 µM

Q: Give the measured TGI of `Oc1c(CN2CCCC2)cc(COCc2ccccc2)c2cccnc12` .
A: 9.5 µM

Q: Give the measured TGI of `c1ccc(-c2cc(-c3cc(-c4ccccc4)n(-c4ccccc4)n3)nn2-c2ccccc2)cc1` .
A: > 100 µM

Q: Give the measured TGI of `CCCCCCCCCC(=O)CC(=O)c1c(O)cccc1O` .
A: > 100 µM

Q: Give the measured TGI of `CC(=O)Oc1cccc2c1C(=O)c1c(OC(C)=O)cc(C)cc1C2=O` .
A: > 100 µM

Q: Give the measured TGI of `COc1ccc([C@H]2O[C@@H](CO)C[C@]2(O)c2ccc(OC)cc2)cc1` .
A: > 100 µM

Q: Give the measured TGI of `CC(=O)N1CC(F)(F)c2c(Sc3ncc(N4CCC5(CC4)COC[C@H]5N)nc3N)cccc21` .
A: 75.1 µM

Q: Give the measured TGI of `Cc1nc(-c2nc([N+](=O)[O-])c([N+](=O)[O-])[nH]2)cs1` .
A: > 100 µM

Q: Give the measured TGI of `CCCC[C@@H](COC(=O)N(Cc1cccs1)Cc1cccs1)NC(=O)N[C@@H](CC(=O)OC)c1ccc2c(c1)OCO2` .
A: > 100 µM

Q: Give the measured TGI of `Cc1ccc(S(=O)(=O)N/N=C2\C=C[C@]3(CC2)C(=O)N(C)c2ccccc23)cc1` .
A: > 100 µM

Q: Give the measured TGI of `COC/C=C\[C@@]1(O)CCCC[C@@H]1CC(OC)OC` .
A: > 100 µM

Q: Give the measured TGI of `C[N+]1(C)CN(c2ccccc2)C2(CCN(CCCC(=O)c3cccs3)CC2)C1=O` .
A: > 100 µM
